ASSAY COMMENT: chemical genetic growth profiling, strain panel (AID 1159580);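 further: tested at 20 µM; growth read once vehicle control cultures reached saturation at 30 °C; 1 = growth at the plate median or of vehicle wells; lower values mean less growth of the strain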
APPLIED CONDITIONS: S. cerevisiae deletion strains, growth OD, locus YGL167C, strain pmr1, active compounds read low
The whole screen tested about 5,500 compounds, of which about 2,000 (36%) were called active. Another 18% or so got no clear call; they are omitted. The list shows a part of the results.
MEASUREMENT LABEL: normalized growth
Give bare numbers.

Use the examples below as a reference point.
{"COMPOUND": "Cn1c(=O)c2c(ncn2CCO)n(C)c1=O", "normalized growth": 1.02}
{"COMPOUND": "COc1ccc(-c2c(O)c3c(OC)c4c(cc3oc2=O)OC(C)(C)C=C4)cc1", "normalized growth": 0.92}

Shift focus to the following entry.
Exercise: Can you look up the measured normalized growth of CC12CCC(O)CC1CCc1ccccc12 (stereo not drawn) for me?
Key: 0.962

###

Would you mind telling me the reported normalized growth of each entry?
ASSAY COMMENT: chemical genetic growth profiling, strain panel (AID 1159580)
APPLIED CONDITIONS: S. cerevisiae deletion strains, growth OD, locus YJL154C, strain vps35, active compounds read low
The whole screen tested about 5,500 compounds, of which about 2,000 (36%) were called active. About 18% were inconclusive and are not listed. The list shows a part of the results.
Numbers only.

Here are 5 compounds together with their reported answers.
{"COMPOUND": "CC(=O)c1ccc[nH]1", "normalized growth": 0.996}
{"COMPOUND": "CC(C)[C@@H]1CC[C@@H](C)CC1=O", "normalized growth": 0.989}
{"COMPOUND": "CC(C)c1cc2c(c(O)c1O)[C@@]1(C(=O)O)CCCC(C)(C)C1CC2 (some centres not stated)", "normalized growth": 1}
{"COMPOUND": "CN1CCN(C2=Nc3cc(Cl)ccc3Nc3ccccc32)CC1", "normalized growth": 0.981}
{"COMPOUND": "COc1cc(O)ccc1C(C)=O", "normalized growth": 1.02}

Provide normalized growth for all items below, preserving their order.
1. COc1ccc(CC(=O)c2ccc(O)cc2O)cc1
2. O=C(O)CCC(=O)OC[C@@H](NC(=O)C(Cl)Cl)[C@H](O)c1ccc([N+](=O)[O-])cc1

Key:
1: 0.992; 2: 0.975

###

ASSAY COMMENT: chemical genetic growth profiling, strain panel (AID 1159580)
APPLIED CONDITIONS: S. cerevisiae deletion strains, growth OD, locus YPL241C, strain CIN2, active compounds read low
Hit rate of the full screen: of about 5,500 compounds, about 2,000 (36%) were called active. Not shown: some 18% with an inconclusive outcome. This is one part of the list.
MEASUREMENT LABEL: normalized growth
Numbers only.

Consider the worked cases shown below.
{"COMPOUND": "CCCN(CCC)c1c([N+](=O)[O-])cc(C(F)(F)F)cc1[N+](=O)[O-]", "VALUE MEASURED": 1.01}
{"COMPOUND": "O=[N+]([O-])c1cc(C(F)(F)F)ccc1Sc1ccc(Cl)cc1", "VALUE MEASURED": 0.967}

Please look at the items below and tell me normalized growth for each one, in order.
1. CC(=O)N[C@H](C(=O)O)C(C)(C)SN=O
2. O=[N+]([O-])c1cc(C(F)(F)F)ccc1Oc1cc(C(F)(F)F)cc(C(F)(F)F)c1
3. CCCn1c(=O)c2c(ncn2C)n(CCC)c1=O

Key:
1.01
1.07
1.01

###

ASSAY COMMENT: chemical genetic growth profiling, strain panel (AID 1159580)
APPLIED CONDITIONS: S. cerevisiae deletion strains, growth OD, locus YBR135W, strain CKS1, active compounds read low
The campaign covered roughly 5,500 compounds. About 2,000 (36%) were called active. Roughly 18% stayed inconclusive and do not appear here. The list shows a part of the results.
Record form. Attribute: normalized growth. Fill in for each entry.
Give bare numbers.

{"COMPOUND": "NNC(=O)c1oc2nc(-c3ccccc3)cc(-c3ccccc3)c2c1N", "MEASUREMENT LABEL": "normalized growth", "VALUE MEASURED": 0.984}

Hey, can you go through the list below and give me normalized growth for every item?
1. O=C(NCc1ccc2c(c1)OCO2)c1cc2ccccc2s1
2. Cc1csc2c(N3CCN(C(=S)Nc4ccc(C(F)(F)F)cc4)CC3)ncnc12

Key:
0.87
0.981

Please state normalized growth for every compound in the list that follows.
1. FC(F)(F)c1ccncc1-c1nc(-c2ccc(Cl)cc2)cs1
2. CCOC(=O)c1cnc(-c2ccccn2)[nH]c1=O
3. COC(=O)c1cccc(NS(=O)(=O)c2ccc(Cl)c(Cl)c2)c1

Key:
0.98
0.932
0.973

###

Please provide measured normalized growth for the entries that follow.
ASSAY COMMENT: chemical genetic growth profiling, strain panel (AID 1159580);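 further: tested at 20 µM; growth read once vehicle control cultures reached saturation at 30 °C; 1 = growth at the plate median or of vehicle wells; lower values mean less growth of the strain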
APPLIED CONDITIONS: S. cerevisiae deletion strains, growth OD, locus YPL256C, strain CLN2, active compounds read low
The campaign covered roughly 5,500 compounds. About 2,000 (36%) were called active. Roughly 18% stayed inconclusive and do not appear here. The list shows a part of the results.
Answers are plain numbers.

These solved cases illustrate the format of a correct answer.
{"COMPOUND": "O=C1c2ccccc2C(=O)c2sccc21", "normalized growth": 0.223}
{"COMPOUND": "CN1CCN(C2=Nc3cc(Cl)ccc3Nc3ccccc32)CC1", "normalized growth": 1.05}
{"COMPOUND": "O=C1C=C(O)c2ccccc2C1=O", "normalized growth": 0.818}

Each of the following entries comes with a recorded value; kindly state normalized growth for each.
1. COc1cc(Cc2cnc(N)nc2N)cc(OC)c1OC
2. O=C(Nc1cc(Cl)cc(Cl)c1)c1cc(Cl)ccc1O
3. CC[C@H]1OC(=O)[C@H](C)[C@@H](O[C@H]2C[C@@](C)(OC)[C@@H](O)[C@H](C)O2)[C@H](C)[C@@H](O[C@@H]2O[C@H](C)C[C@H](N(C)C)[C@H]2O)[C@](C)(O)C[C@@H](C)/C(=N/OCOCCOC)[C@H](C)[C@@H](O)[C@]1(C)O
4. O=C1c2ccccc2C(=O)c2ccccc21
5. CC(c1cc2ccccc2s1)N(O)C(N)=O (stereo not drawn)
6. Cn1ncc(-c2nc(-c3ccc(Cl)cc3)cs2)c1N

Key:
1. 0.982
2. 0.836
3. 0.994
4. 1.08
5. 0.976
6. 0.859

List the reported normalized growth of each compound below.
1. O=C1C(NCc2ccccc2)=C(NCc2ccccc2)C(=O)c2ccccc21
2. Cc1cc2c(s1)Nc1ccccc1N=C2N1CCN(C)CC1
3. C[C@]12[C@H](O)CC3C(CC[C@@H]4C[C@@H](O)CC[C@]34C)[C@@]1(O)CC[C@@H]2C1=CC(=O)OC1 (stereo partly drawn)
4. CC[C@@H](CO)NC(=O)[C@@H]1C=C2c3cccc4c3c(cn4C)C[C@H]2N(C)C1
5. O=[N+]([O-])c1ccc(Sc2ccccc2)cc1O
6. O=[N+]([O-])c1ccc(Sc2ccccc2)c([N+](=O)[O-])c1
7. O=c1c(O)c(-c2ccccc2)oc2ccccc12
8. COc1ccc(NS(=O)(=O)c2ccc(N)cc2)nn1

Key:
0.986
1.03
0.982
0.973
0.895
0.428
0.886
0.985

Exercise: Form field: reported normalized growth of O=C(O)c1cc(=O)c2ccccc2[nH]1
Key: 0.954

###

Please go through the items and note down their normalized growth.
ASSAY COMMENT: chemical genetic growth profiling, strain panel (AID 1159580);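 further: tested at 20 µM; growth read once vehicle control cultures reached saturation at 30 °C; 1 = growth at the plate median or of vehicle wells; lower values mean less growth of the strain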
APPLIED CONDITIONS: S. cerevisiae deletion strains, growth OD, locus YML094W, strain GIM5, active compounds read low
Screen size: about 5,500 compounds; about 2,000 (36%) were called active. About 18% were inconclusive and are not listed. The list shows a part of the results.
Answers are plain numbers.

Need normalized growth for each of these compounds.
1. N/C(=N/O)c1cnccc1C(F)(F)F
2. Nc1c(Cl)cc(C(=O)Nc2cc(Cl)cc(Cl)c2)cc1Cl
3. CC(C)(C)c1cc(C(=O)NN)n[nH]1
4. O=C(CNc1cccc(Cl)c1)c1ccc(Cl)cc1
5. Cc1c(-c2csc(-c3ccc(Cl)cc3)n2)sc2ccc(Cl)cc12

Key:
[1.05, 0.872, 1.04, 0.938, 1.04]

###

ASSAY COMMENT: chemical genetic growth profiling, strain panel (AID 1159580);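 further: tested at 20 µM; growth read once vehicle control cultures reached saturation at 30 °C; 1 = growth at the plate median or of vehicle wells; lower values mean less growth of the strain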
APPLIED CONDITIONS: S. cerevisiae deletion strains, growth OD, locus YPL106C, strain sse1, active compounds read low
The campaign covered roughly 5,500 compounds. About 2,000 (36%) were called active. Not shown: some 18% with an inconclusive outcome. This is one part of the list.
Consider the cut-off 1. If the recorded normalized growth is strictly smaller, the label is True; if not, the label is False.

Solved cases below.
{"COMPOUND": "O=C1c2ccccc2C(=O)c2ccccc21", "LABEL VALUE": "True"}
{"COMPOUND": "COc1cc2c(cc1OC)C(C)NCC2 (stereo unspecified)", "LABEL VALUE": "True"}
{"COMPOUND": "CN1CCCCC1c1ccc(-c2cccnc2)nc1 (stereo unspecified)", "LABEL VALUE": "True"}

Exercise: Threshold test, normalized growth < 1: O=C(Nc1ccc([N+](=O)[O-])cc1Cl)c1cc(Cl)ccc1O
Key: True

Exercise: Field: below-cutoff. Rule: recorded normalized growth strictly less than 1. Subject: CCCN(CCC)c1c([N+](=O)[O-])cc(C(F)(F)F)cc1[N+](=O)[O-]
Key: False

Exercise: Confirm or reject: normalized growth of O=C(O)C1=C(CSc2nnnn2CS(=O)(=O)O)CS[C@@H]2C(NC(=O)[C@H](O)c3ccccc3)C(=O)N12 (stereo partly specified) lies strictly below 1
Key: True

Exercise: Does COC(=O)C[C@H]1C(C)(C)[C@@H](OC(C)=O)[C@@H]2CC3=C4CC(=O)O[C@@H](c5ccoc5)[C@]4(C)CCC3[C@@]1(C)C2=O (stereo partly specified) have normalized growth strictly under 1?
Key: False

Exercise: Consider the compound C[N+]12CCC(CC1)C(OC(=O)C(O)(c1ccccc1)c1ccccc1)C2 (stereo unspecified) . Is its normalized growth strictly less than 1?
Key: True

Exercise: API: query returns whether the compound falls strictly under 1 in normalized growth. Query: O=C(O)CC[N+](=O)[O-]
Key: False
